- assaySystem: BRDT (Homo sapiens, UniProt Q58F21)
- protocolNotes: competitive TR-FRET assay, BET-BD with acetylated peptide ligand
- Assay type: binding
- experimentalParameters: BRDT; Table 11 additional modifications; read-out: BRDT EC50
Kindly state EC50 for each of the entries shown.
Use nM as the unit, but write only the number.

Req: I am curious: what EC50 value has been reported for CC(=O)N1c2ccc(-c3cccc(NCC(C)C)c3)cc2[C@H](NC(=O)OC(C)C)C[C@@H]1C [compound 96] ?
Resp: 6200

Req: // next record CC(=O)Nc1cccc(-c2ccc3c(c2)[C@H](NC2CCCCCC2)C[C@H](C)N3C(C)=O)c1 [compound 37]
Resp: 2800

Req: Can you check CNCc1ccc(N[C@@H]2C[C@H](C)N(C(C)=O)c3ccc(-c4cccc(NC(C)=O)c4)cc32)cc1 [compound 23] next?
Resp: 2100
